Biological target: human c-Met (HGFR), full length, on the cell surface (human, UniProt P08581 25-1390)
Sequence (P08581 25-1390 limits assumed): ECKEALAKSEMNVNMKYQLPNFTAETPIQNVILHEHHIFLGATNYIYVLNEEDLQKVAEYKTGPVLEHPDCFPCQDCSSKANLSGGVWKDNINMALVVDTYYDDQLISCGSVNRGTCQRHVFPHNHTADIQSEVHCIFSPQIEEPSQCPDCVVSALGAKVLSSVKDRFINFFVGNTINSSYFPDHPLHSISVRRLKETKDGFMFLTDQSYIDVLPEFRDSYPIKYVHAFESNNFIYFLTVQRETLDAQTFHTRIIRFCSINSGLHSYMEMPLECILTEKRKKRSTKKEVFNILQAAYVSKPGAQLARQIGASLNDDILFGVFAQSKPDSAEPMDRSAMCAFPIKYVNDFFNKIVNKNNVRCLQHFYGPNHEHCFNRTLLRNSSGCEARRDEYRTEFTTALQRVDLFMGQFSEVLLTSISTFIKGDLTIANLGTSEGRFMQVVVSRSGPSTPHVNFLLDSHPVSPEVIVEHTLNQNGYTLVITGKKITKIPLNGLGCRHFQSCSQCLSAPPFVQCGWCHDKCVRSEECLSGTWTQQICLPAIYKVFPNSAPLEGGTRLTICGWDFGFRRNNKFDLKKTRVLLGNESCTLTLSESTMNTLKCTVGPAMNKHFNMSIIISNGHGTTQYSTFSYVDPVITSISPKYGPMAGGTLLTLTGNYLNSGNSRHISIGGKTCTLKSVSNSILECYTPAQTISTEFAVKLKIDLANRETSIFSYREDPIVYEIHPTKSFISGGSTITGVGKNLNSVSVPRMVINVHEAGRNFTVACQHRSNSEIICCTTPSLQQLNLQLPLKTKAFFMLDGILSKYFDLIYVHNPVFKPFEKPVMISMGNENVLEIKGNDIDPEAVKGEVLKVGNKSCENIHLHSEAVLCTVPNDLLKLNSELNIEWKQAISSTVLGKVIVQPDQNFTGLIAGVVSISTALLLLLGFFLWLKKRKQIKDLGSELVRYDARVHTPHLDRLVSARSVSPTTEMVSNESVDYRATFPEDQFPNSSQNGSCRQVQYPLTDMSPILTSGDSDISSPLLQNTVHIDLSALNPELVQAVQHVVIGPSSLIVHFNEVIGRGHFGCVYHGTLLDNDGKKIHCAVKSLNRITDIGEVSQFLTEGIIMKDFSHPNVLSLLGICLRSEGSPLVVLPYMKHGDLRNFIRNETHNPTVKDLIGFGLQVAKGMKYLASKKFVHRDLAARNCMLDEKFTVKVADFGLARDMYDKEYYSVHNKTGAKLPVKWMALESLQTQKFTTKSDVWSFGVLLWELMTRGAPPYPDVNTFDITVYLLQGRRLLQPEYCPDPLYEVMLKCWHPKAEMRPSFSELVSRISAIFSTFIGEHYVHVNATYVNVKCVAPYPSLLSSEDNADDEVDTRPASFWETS
Experiment: cell-based or functional assay
Please use true for IC50, in vitro cytotoxicity, NCI-H596, +HGF under 2 nM and false for everything else, ties included.

- binder: "ADC2b (antibody, human IgG1, kappa, V domains shown, vc-seco-DUBA linker-drug on the engineered cysteine at HC position 41 (Kabat); DAR 1.7) VH: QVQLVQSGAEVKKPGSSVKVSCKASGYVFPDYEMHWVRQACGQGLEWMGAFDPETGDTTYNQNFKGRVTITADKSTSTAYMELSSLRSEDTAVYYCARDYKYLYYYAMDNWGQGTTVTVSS VL: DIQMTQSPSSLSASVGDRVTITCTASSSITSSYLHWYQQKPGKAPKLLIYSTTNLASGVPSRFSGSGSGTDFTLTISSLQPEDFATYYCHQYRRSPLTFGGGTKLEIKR"
  class: "false"

Exam item: Quick check: does ADC2c (antibody, human IgG1, kappa, V domains shown, vc-seco-DUBA linker-drug on the engineered cysteine at HC position 41 (Kabat); DAR 1.7) VH: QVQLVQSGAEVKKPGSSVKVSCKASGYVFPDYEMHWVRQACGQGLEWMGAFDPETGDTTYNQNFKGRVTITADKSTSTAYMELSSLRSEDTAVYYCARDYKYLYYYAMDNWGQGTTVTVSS VL: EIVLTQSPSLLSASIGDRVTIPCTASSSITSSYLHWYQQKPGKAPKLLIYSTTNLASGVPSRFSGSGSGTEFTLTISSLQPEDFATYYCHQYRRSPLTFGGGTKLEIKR have IC50, in vitro cytotoxicity, NCI-H596, +HGF under 2 nM?
Marked response: false

Exam item: Here's an entry: ADC3b (antibody, human IgG1, kappa, V domains shown, vc-seco-DUBA linker-drug on the engineered cysteine at HC position 41 (Kabat); DAR 1.9, Antibody-drug conjugate of mAb3b; also called mAb3b-vc-seco-DUBA) VH: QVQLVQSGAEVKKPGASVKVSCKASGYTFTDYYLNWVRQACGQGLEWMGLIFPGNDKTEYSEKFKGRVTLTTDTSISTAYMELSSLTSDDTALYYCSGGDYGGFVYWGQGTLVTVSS VL: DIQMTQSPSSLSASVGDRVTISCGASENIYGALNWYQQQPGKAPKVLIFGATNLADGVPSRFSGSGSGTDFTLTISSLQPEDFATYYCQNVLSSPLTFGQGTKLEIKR . Is its IC50, in vitro cytotoxicity, NCI-H596, +HGF below 2 nM?
Marked response: true

Exam item: Hi there! Is IC50, in vitro cytotoxicity, NCI-H596, +HGF for ADC1 (antibody, human IgG1, kappa, V domains shown, vc-seco-DUBA linker-drug on the engineered cysteine at HC position 41 (Kabat); DAR 1.5) VH: EVQLQQSGPELLKPGASVKMSCKASGYIFTDYFMNWVKQSCGKSLEWIGRVNPKNGDITYNQKFRGKATLTVDKSLTTAYMQLNSLTSEDSAVYFCAYDGYYDGMDFWGQGTSVTVSS VL: ENVLTQSPAIMSASPGEKVTMTCRANSSVSSNFLHWYQQKSGASPKLWISSTSNLAFGVPPRFSGSGSGTSYSLTISSVEAEDAATYYCHQYSGHPFTFGSGTKLEIKR below 2 nM, do you know?
Marked response: true

Exam item: Hello, is IC50, in vitro cytotoxicity, NCI-H596, +HGF of the following binder strictly smaller than 2 nM? ADC3a (antibody, human IgG1, kappa, V domains shown, vc-seco-DUBA linker-drug on the engineered cysteine at HC position 41 (Kabat); DAR 1.9) VH: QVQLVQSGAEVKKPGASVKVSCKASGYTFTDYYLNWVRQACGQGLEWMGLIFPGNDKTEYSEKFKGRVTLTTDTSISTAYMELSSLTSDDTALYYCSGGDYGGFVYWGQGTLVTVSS VL: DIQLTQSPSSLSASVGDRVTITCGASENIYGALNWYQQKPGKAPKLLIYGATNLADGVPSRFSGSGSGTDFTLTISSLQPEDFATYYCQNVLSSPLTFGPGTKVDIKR
Marked response: false

Exam item: Is 2 nM strictly greater than the binder's reported IC50, in vitro cytotoxicity, NCI-H596, +HGF? binder: ADC3 (antibody, human IgG1, kappa, V domains shown, vc-seco-DUBA linker-drug on the engineered cysteine at HC position 41 (Kabat); DAR 1.1) VH: QIQLQQSGPELVKPGASVKISCKASGYTFTDYYLNWVKQRCGQGLEWIGLIFPGNDKTEYSEKFKGKATLTVDTSSSTAYIQLSRLSSEDSAIYFCSGGDYGGFVYWGQGTLVTVSS VL: DIQMTQSPTSLSASVGETVTITCGASENIYGALNWYQRKQGKSPQLLIYGATNLADGMSSRFSGSGSGRQFSLKINSLHPDDVATYFCQNVLSSPLTFGSGTKLEIKR
Marked response: true

Exam item: Take the binder ADC2a (antibody, human IgG1, kappa, V domains shown, vc-seco-DUBA linker-drug on the engineered cysteine at HC position 41 (Kabat); DAR 1.7) VH: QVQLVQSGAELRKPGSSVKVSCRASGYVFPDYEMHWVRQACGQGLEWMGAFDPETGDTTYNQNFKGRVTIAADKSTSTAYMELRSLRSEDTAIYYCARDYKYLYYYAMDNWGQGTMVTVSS VL: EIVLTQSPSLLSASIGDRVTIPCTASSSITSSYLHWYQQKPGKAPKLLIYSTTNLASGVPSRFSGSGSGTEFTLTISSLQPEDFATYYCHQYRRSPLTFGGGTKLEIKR and say whether its IC50, in vitro cytotoxicity, NCI-H596, +HGF is less than 2 nM.
Marked response: false

Exam item: Please check: IC50, in vitro cytotoxicity, NCI-H596, +HGF for ADC3d (antibody, human IgG1, kappa, V domains shown, vc-seco-DUBA linker-drug on the engineered cysteine at HC position 41 (Kabat); DAR 1.8) VH: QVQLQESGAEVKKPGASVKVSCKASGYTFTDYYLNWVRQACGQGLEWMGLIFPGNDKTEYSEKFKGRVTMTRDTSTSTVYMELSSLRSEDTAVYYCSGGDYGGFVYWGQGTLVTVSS VL: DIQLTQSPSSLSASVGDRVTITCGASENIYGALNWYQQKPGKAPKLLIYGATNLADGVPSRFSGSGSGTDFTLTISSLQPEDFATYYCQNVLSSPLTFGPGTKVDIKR , strictly under 2 nM or not?
Marked response: false

Exam item: Please check: IC50, in vitro cytotoxicity, NCI-H596, +HGF for ADC3e (antibody, human IgG1, kappa, V domains shown, vc-seco-DUBA linker-drug on the engineered cysteine at HC position 41 (Kabat); DAR 1.9) VH: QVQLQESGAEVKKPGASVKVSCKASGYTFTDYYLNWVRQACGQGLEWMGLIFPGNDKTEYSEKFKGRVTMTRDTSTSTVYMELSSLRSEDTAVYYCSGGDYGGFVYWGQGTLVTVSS VL: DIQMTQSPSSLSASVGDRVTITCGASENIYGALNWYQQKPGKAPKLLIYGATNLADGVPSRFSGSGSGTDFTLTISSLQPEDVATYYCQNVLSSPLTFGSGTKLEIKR , strictly under 2 nM or not?
Marked response: false

Exam item: Answer whether the binder ADC2 (antibody, human IgG1, kappa, V domains shown, vc-seco-DUBA linker-drug on the engineered cysteine at HC position 41 (Kabat); DAR 1.7) VH: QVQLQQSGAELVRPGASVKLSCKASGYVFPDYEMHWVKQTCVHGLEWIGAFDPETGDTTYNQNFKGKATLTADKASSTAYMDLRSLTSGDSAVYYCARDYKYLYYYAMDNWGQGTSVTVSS VL: QIVLTQSPAIMSASLGERVTMTCTASSSITSSYLHWYQQKPGSSPKLWIYSTTNLASGVPGRFSGSGSGTSFSLTISSMEAEDAATYYCHQYRRSPLTFGAGTKLELKR has IC50, in vitro cytotoxicity, NCI-H596, +HGF strictly less than 2 nM
Marked response: false

Exam item: Item ADC1a (antibody, human IgG1, kappa, V domains shown, vc-seco-DUBA linker-drug on the engineered cysteine at HC position 41 (Kabat); DAR 1.7) VH: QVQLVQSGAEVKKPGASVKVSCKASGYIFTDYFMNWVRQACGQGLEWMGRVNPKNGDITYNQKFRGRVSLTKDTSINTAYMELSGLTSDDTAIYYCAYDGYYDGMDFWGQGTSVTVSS VL: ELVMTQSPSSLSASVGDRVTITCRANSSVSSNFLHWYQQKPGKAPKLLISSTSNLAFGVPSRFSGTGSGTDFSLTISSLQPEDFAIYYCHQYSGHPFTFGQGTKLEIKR : IC50, in vitro cytotoxicity, NCI-H596, +HGF beneath 2 nM, strictly?
Marked response: false
